System: Blattella germanica (adult males)
Test: Blattella germanica knockdown test
Assay type: in vivo
Conditions: 250 ppm in kerosene, 1 cm3 sprayed onto 10 adult males; 20 min; tests 1 and 2 are repeats
Each record here notes measured % KNOCKDOWN OBSERVED 20 min.
Measure Name: % KNOCKDOWN OBSERVED 20 min (%)

# Molecule, Measure Name, Unit Annotation, Endpoint Result
rows = [
    ("CC(=O)SCc1c(F)c(F)c(COC(=O)[C@@H]2[C@@H](/C=C(\\Cl)C(F)(F)F)C2(C)C)c(F)c1F (racemic)", "% KNOCKDOWN OBSERVED 20 min", "%", 40),
    ("CC1(C)C(C=C(Cl)C(F)(F)F)C1C(=O)OCc1c(F)c(F)c(CF)c(F)c1F (racemic)", "% KNOCKDOWN OBSERVED 20 min", "%", 90),
    ("CC(=O)SCc1c(F)c(F)c(COC(=O)[C@@H]2[C@H](/C=C(\\Cl)C(F)(F)F)C2(C)C)c(F)c1F (racemic)", "% KNOCKDOWN OBSERVED 20 min", "%", 100),
]
